Quick reference for Activity among some compounds
- targetSystem: Creatine kinase M-type (Homo sapiens)
- assayName: Activation of human CK-MM assessed as increase in enzyme activity at 20 uM relative to control
Just so you know, I need the unit written after the number.

• CC(C)=CCC[C@](C)(O)[C@H]1CC[C@]2(C)[C@@H]1[C@H](O)C[C@@H]1[C@@]3(C)CC[C@H](O)C(C)(C)[C@@H]3CC[C@]12C = 39.2%
• CC(C)=CCC[C@](C)(O)[C@H]1CC[C@]2(C)[C@@H]1[C@H](O)C[C@@H]1[C@@]3(C)CC[C@H](O)C(C)(C)[C@@H]3[C@@H](O)C[C@]12C = 32.2%
• CC1(C)CCC[C@](C)([C@H]2CC[C@]3(C)[C@@H]2[C@H](O)C[C@@H]2[C@@]4(C)CC[C@H](O)C(C)(C)[C@@H]4CC[C@]23C)O1 = 7.1%

// switching to the query compound
stdin: Provide measured Activity value, entry: `CC(C)=CCC[C@@](C)(O)[C@H]1CC[C@]2(C)[C@@H]1[C@H](O)C[C@@H]1[C@@]3(C)CC[C@H](O)C(C)(C)[C@@H]3CC[C@]12C`
stdout: 23.5%

----------
- targetSystem: Creatine kinase M-type (Homo sapiens)
- assayName: Activation of human CK-MM assessed as increase in enzyme activity at 5 uM relative to control
parameter: Activity (%)
Write the number in % without appending the unit.

See these solved cases before continuing.
• CC(C)=CCC[C@@](C)(O)[C@H]1CC[C@]2(C)[C@@H]1[C@H](O)C[C@@H]1[C@@]3(C)CC[C@H](O)C(C)(C)[C@@H]3CC[C@]12C = 12.6
• CC1(C)[C@@H](O)CC[C@]2(C)[C@H]3C[C@@H](O)[C@@H]4[C@@H]([C@@](C)(O)CCC(=O)O)CC[C@@]4(C)[C@]3(C)CC[C@@H]12 = 37.6

// switching to the query compound
stdin: Provide measured Activity value, entry: `CC(C)=CCC[C@](C)(O)[C@H]1CC[C@]2(C)[C@@H]1[C@H](O)C[C@@H]1[C@@]3(C)CC[C@H](O)C(C)(C)[C@@H]3[C@@H](O)C[C@]12C`
stdout: 19.1

----------
- targetSystem: Creatine kinase M-type (Homo sapiens) (UniProt P06732)
- Sequence (P06732 whole entry): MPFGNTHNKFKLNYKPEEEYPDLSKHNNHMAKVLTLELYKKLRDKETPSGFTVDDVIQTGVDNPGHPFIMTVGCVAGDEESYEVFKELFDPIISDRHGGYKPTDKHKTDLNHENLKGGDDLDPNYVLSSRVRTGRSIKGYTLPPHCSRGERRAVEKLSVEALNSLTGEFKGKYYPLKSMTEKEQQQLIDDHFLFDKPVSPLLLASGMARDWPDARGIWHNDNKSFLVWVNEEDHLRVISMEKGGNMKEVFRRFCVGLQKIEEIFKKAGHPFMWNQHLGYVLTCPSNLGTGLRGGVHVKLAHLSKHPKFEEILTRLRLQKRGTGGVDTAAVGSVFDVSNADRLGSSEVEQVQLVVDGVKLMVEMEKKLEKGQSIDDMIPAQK
- assayName: Activation of human CK-MM assessed as increase in enzyme activity at 10 uM relative to control
parameter: Activity (%)
Write the number in % without appending the unit.

See these solved cases before continuing.
* CC(C)=CCC[C@@](C)(O)[C@H]1CC[C@]2(C)[C@@H]1[C@H](O)C[C@@H]1[C@@]3(C)CC[C@H](O)C(C)(C)[C@@H]3CC[C@]12C | 14.7
* CC(C)=CCC[C@](C)(O)[C@H]1CC[C@]2(C)[C@@H]1[C@H](O)C[C@@H]1[C@@]3(C)CC[C@H](O)C(C)(C)[C@@H]3[C@@H](O)C[C@]12C | 20.6

// switching to the query molecule
stdin: Provide measured Activity value, entry: `CC(C)(O)CCC[C@](C)(O)[C@H]1CC[C@]2(C)[C@@H]1[C@H](O)C[C@@H]1[C@@]3(C)CC[C@H](O)C(C)(C)[C@@H]3CC[C@]12C`
stdout: 8.6

----------
Quick reference for Activity among some molecules
- targetSystem: Creatine kinase M-type (Homo sapiens)
- assayName: Activation of human CK-MM assessed as increase in enzyme activity at 10 uM relative to control
Write the number in % without appending the unit.

- CC1(C)[C@@H](O)CC[C@]2(C)[C@H]3C[C@@H](O)[C@@H]4[C@@H]([C@@](C)(O)CCC(=O)O)CC[C@@]4(C)[C@]3(C)CC[C@@H]12: 37.4

stdin: Provide measured Activity value, entry: `CC(C)=CCC[C@](C)(O)[C@H]1CC[C@]2(C)[C@@H]1[C@H](O)C[C@@H]1[C@@]3(C)CC[C@H](O)C(C)(C)[C@@H]3CC[C@]12C`
stdout: 35.4

stdin: Provide measured Activity value, entry: `CC(C)=C[C@H]1C[C@](C)(O)[C@@H]2[C@H]3CC[C@@H]4[C@@]5(C)CC[C@H](O)C(C)(C)[C@@H]5CC[C@@]4(C)[C@@]34CO[C@@]2(C4)O1`
stdout: 11.9
